Reference for the values: patent US20210130452A1

targetDesc: human IL-17A (human, UniProt Q16552 24-155, biotinylated with Sulfo-NHS-LC-Biotin in the AlphaScreen assays only)
Sequence (Q16552 other isoform, or with tags, fused parts or gaps): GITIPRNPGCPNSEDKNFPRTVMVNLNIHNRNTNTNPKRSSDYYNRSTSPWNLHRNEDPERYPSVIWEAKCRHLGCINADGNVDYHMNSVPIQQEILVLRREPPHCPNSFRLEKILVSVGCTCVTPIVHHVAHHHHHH
measurementDescription: cell-based or functional assay
Rule: measured IL-17A-induced IL-6 production in HT-1080 cells, IC50 below 10 nM gets 1; anything equal to or greater than 10 nM gets -1.

binder	group
17C01 (VHH, Class 4 Nanobody (cross-reactive: anti-IL-17A, IL-17F and IL-17A/F); not shown: c-myc, His6 tag) VHH: EVQLVESGGRLVQAGGSLRLPCAASGRTFTSYPMGWFRQAPGKEREFVAAISMSGDDAAYADFVRGRFTISRDDARNTVYLHMTSLKPEDTAVYYCAARTSYDGTYDYIDDYSYWGQGTQVTVSS	-1
04A02 (VHH, Class 2 Nanobody (anti-IL-17A and IL-17A/F); not shown: c-myc, His6 tag) VHH: EVQLVESGGGLVQPGGSLRLSCAASRNINIINYMAWYRQAPGNQRELVAAMTSDATTEYADSVKGRFTISRDIPENTVYLQMNSLKPEDTAVYYCNAKGIWDYLGRRDFGDYWGQGTQVTVSS	-1
04B10 (VHH, Class 2 Nanobody (anti-IL-17A and IL-17A/F); not shown: c-myc, His6 tag) VHH: EVQLVESGGGLVQAGGSQSLSCVASGTIVNINVMGWYRQAPGKQRELVALITSGGGTTYGDSVKGRFTISIDNAKNTVILQMNSLEAEDTAVYYCAAEIGYYSGGTYFSSEAHWGQGTQVTVSS	1

Q: Is 10 nM strictly greater than the binder's reported IL-17A-induced IL-6 production in HT-1080 cells, IC50? binder: 13B05 (VHH, Class 4 Nanobody (cross-reactive: anti-IL-17A, IL-17F and IL-17A/F); not shown: c-myc, His6 tag) VHH: EVQLVESGGRLVQAGGSLRLSCAASGRTFTSYPMGWFRQAPGKEREFVAAISMSGDDTAYTDFVRGRFTISRDDARNTVYLHMTSLKPEDTAVYYCAARTSYDGTYDYIDDYSYWGQGTQVTVSS
A: -1

Q: Is 10 nM strictly greater than the binder's reported IL-17A-induced IL-6 production in HT-1080 cells, IC50? binder: 04G01 (VHH, Class 2 Nanobody (anti-IL-17A and IL-17A/F); also called IL17MS04G01; not shown: c-myc, His6 tag) VHH: EVQLVESGGGLVQAGGSQRLSCTASGTIVNIHVMGWYRQAPGKQRELVALIFSGGSADYADSVKGRFTISRDNAKNTVYLEMNSLKAEDTAVYYCAAEIGYYSGGTYYSSEAHWGQGTQVTVSS
A: 1
